ASSAY_COMMENT: Selectivity ratio of IC50 for BACE2 to IC50 for BACE1
ENDPOINT: Ratio IC50

{"columns": ["SMILES_STRUCTURE", "ENDPOINT", "OBSERVED_MEASUREMENT"],
 "data": [
  ["COc1ccc2[nH]c(-c3cc(C(=O)N[C@@H](C)c4ccccc4)cc(N(C)S(C)(=O)=O)c3)nc2c1", "Ratio IC50", 5],
  ["Fc1ccc2nc(-c3cccc(-c4cn5ccc(F)cc5n4)c3)[nH]c2c1", "Ratio IC50", 204],
  ["COc1cccc(-c2cnc(-c3cc(C(=O)N[C@@H](C)c4ccccc4)cc(N(C)S(C)(=O)=O)c3)[nH]2)c1", "Ratio IC50", 30],
  ["C[C@H](NC(=O)c1cc(-c2nc3cc(F)ccc3[nH]2)cc(N(C)S(C)(=O)=O)c1)c1ccccc1", "Ratio IC50", 5]
]}

A = COc1ccc2nc(-c3cccc(-c4nc5ccccn5c4NC(C)(C)C)c3)[nH]c2c1
B = COc1ccc2nc(-c3ccc(-c4nc5ccccn5c4NC(C)(C)C)cc3)[nH]c2c1
*Q* Could you point out whether the larger Ratio IC50 belongs to A or to B ? // caller expects the label of the chosen entry
*A* A

====

TESTED_TARGET: Beta-secretase 2 (Homo sapiens, UniProt Q9Y5Z0)
Sequence (Q9Y5Z0 63-518 limits assumed, stated change not applied): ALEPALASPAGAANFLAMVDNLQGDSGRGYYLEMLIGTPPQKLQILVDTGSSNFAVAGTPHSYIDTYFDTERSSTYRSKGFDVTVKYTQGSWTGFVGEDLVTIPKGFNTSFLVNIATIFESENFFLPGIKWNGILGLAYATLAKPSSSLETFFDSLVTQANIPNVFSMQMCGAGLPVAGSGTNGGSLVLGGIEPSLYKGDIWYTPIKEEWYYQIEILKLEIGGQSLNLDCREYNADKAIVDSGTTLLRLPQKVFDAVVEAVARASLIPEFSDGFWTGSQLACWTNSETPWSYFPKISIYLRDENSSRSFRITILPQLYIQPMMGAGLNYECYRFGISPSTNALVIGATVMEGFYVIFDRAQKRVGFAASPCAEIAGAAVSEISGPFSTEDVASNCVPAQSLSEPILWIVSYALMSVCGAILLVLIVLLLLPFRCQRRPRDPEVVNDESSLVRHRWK
ASSAY_COMMENT: Inhibition of BACE2 expressing APP Swedish mutant using rhodamine-labeled EVNLDAEFK-quencher as substrate after 60 mins by Michaelis-Menten equation
ENDPOINT: Ki (µM)

{"columns": ["SMILES_STRUCTURE", "TESTED_TARGET", "Ki, µM"],
 "data": [
  ["COc1ccc2[nH]c(-c3cc(C(=O)N[C@@H](C)c4ccccc4)cc(N(C)S(C)(=O)=O)c3)nc2c1", "Beta-secretase 2 (Homo sapiens, UniProt Q9Y5Z0)", 2.35],
  ["c1cc(-c2cn3ccccc3n2)cc(-c2nc3ccccc3[nH]2)c1", "Beta-secretase 2 (Homo sapiens, UniProt Q9Y5Z0)", 3.78],
  ["CC(C)(C)Nc1c(-c2cccc(-c3nc4ccc(F)cc4[nH]3)c2)nc2ccccn12", "Beta-secretase 2 (Homo sapiens, UniProt Q9Y5Z0)", 4.11],
  ["Fc1ccc2nc(-c3cccc(-c4cn5ccc(F)cc5n4)c3)[nH]c2c1", "Beta-secretase 2 (Homo sapiens, UniProt Q9Y5Z0)", 3.57]
]}

a = COc1ccc2nc(-c3cccc(-c4nc5ccccn5c4NC(C)(C)C)c3)[nH]c2c1
b = C[C@H](NC(=O)c1cc(-c2nc3cc(F)ccc3[nH]2)cc(N(C)S(C)(=O)=O)c1)c1ccccc1
*Q* Pick one: a or b . Which one has the lower reported Ki? Let me know the label of the one you choose.
*A* b

====

TESTED_TARGET: Beta-secretase 1 (Homo sapiens)
Sequence (P56817 whole entry): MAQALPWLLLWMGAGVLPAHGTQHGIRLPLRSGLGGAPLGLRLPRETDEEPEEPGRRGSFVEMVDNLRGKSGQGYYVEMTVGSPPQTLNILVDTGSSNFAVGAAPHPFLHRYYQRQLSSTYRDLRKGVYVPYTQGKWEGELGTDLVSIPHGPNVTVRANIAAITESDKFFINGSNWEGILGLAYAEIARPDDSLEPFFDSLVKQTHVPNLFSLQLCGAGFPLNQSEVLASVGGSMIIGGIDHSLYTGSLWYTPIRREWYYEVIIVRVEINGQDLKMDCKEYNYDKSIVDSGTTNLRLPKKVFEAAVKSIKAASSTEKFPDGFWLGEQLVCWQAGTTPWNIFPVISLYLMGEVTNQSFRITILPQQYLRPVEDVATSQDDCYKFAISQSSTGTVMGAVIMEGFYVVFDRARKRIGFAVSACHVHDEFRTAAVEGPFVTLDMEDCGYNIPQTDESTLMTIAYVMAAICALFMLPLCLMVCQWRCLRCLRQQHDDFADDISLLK
ASSAY_COMMENT: Inhibition of BACE1 expressing APP Swedish mutant using rhodamine-labeled EVNLDAEFK-quencher as substrate after 60 mins by Michaelis-Menten equation
ENDPOINT: Ki (µM)

// solved cases for Ki follow
{"columns": ["SMILES_STRUCTURE", "Ki / µM"],
 "data": [
  ["C[C@H](NC(=O)c1cc(-c2ncc(-c3cccc(F)c3)[nH]2)cc(N(C)S(C)(=O)=O)c1)c1ccccc1", 0.18],
  ["CC(C)(C)Nc1c(-c2ccc(-c3nc4ccc(F)cc4[nH]3)cc2)nc2ccccn12", 2.39],
  ["C[C@H](NC(=O)c1cc(-c2nc3cc(F)ccc3[nH]2)cc(N(C)S(C)(=O)=O)c1)c1ccccc1", 0.758],
  ["C[C@H](NC(=O)c1cc(-c2nc(-c3ccccc3)c[nH]2)cc(N(C)S(C)(=O)=O)c1)c1ccccc1", 0.304],
  ["COc1cccc(-c2c[nH]c(-c3cc(C(=O)N[C@@H](C)c4ccccc4)cc(N(C)S(C)(=O)=O)c3)n2)c1", 0.062]
]}

P = CC(C)(C)Nc1c(-c2cccc(-c3nc4ccc(F)cc4[nH]3)c2)nc2ccccn12
Q = COc1ccc2[nH]c(-c3cc(C(=O)N[C@@H](C)c4ccccc4)cc(N(C)S(C)(=O)=O)c3)nc2c1
R = COc1ccc2nc(-c3ccc(-c4nc5ccccn5c4NC(C)(C)C)cc3)[nH]c2c1
*Q* Order each entry by recorded Ki, climbing from the minimum. Field: ranking. Enter the labels in the order requested.
*A* P, Q, R
(P: 0.301 µM, Q: 0.525 µM, R: 2.16 µM)

I = Fc1ccc2nc(-c3cccc(-c4cn5ccc(F)cc5n4)c3)[nH]c2c1
II = CC(C)(C)Nc1c(-c2cccc(-c3nc4ccccc4[nH]3)c2)nc2ccccn12
*Q* Kindly identify which of I and II has the larger recorded Ki value. Label of pick, please.
*A* II
